ASSAY_TEXT: yeast display, Sf9 membrane polyspecificity reagent, FACS + sequencing; frameworks hold sequencing errors
MEASURED_PROPERTY: polyreactivity (PSR sort gate)

[[record]]
sequence_input = "QVQLVESGGGLVQAGGSLRLSCAASGRIFLRYAMGWYRQAPGKERELVAVITWSGGSTNYADSVKGRFTISRDNAKNTVYLQMNSLKPEDTAVYYCAVDNSGRSWPYDYWGQGTQVTVSS"
measured = "low polyreactivity"

[[record]]
sequence_input = "QVQLVESGGGLVQAGGSLRLSCAASGSIFYYYSMGWYRQAPGKERELVATISSTTSTYADSVKGRFTISRDNAKNTVYLQMNSLKPEDTAVYYCSYDYWGQGTQVTVSS"
measured = "low polyreactivity"

[[record]]
sequence_input = "QVQLVESGGGLVQAGGSLRLICAASGLIFWRNAMGWYRQAPGKERELVAAISRTGGNTYYADSVKGRFTISRDNAKNTVYLQMNSLKPEDTAVYYCAKDVGKGYGAYPLDYWGQGTQVTVSS"
measured = "low polyreactivity"

[[record]]
sequence_input = "QVQLVESGGGLVQAGGSLRLSCAASGFIFSRYVMGWYRQAPGKEMELVAVISYRGGSTYYADSVKGRFTISRDNAKNTVYLQMNSLKPEDTAVYYCNADTIPDGEDRYDYWCQGTQVTVSS"
measured = "low polyreactivity"


###

ASSAY_TEXT: yeast display, Sf9 membrane polyspecificity reagent, FACS + sequencing; frameworks hold sequencing errors
MEASURED_PROPERTY: polyreactivity (PSR sort gate)

[[record]]
sequence_input = "QVQLVESGGGLVQAGGSLRLSCAASGITGHNAMGWYRQAPGKERELVARISSGGRTNYADSVKGRFTISRDNAKNTVYLKMNSLKPEDTAVYYCAAGFRVGSFLRYNYWGQGTKVTVSS"
measured = "high polyreactivity"

[[record]]
sequence_input = "QVQLVESGGGLVQAGGSLRLSCAASGFIFQDYALGWYRQAPGKERELVAAISRSTGSTYYADSVKGRFTISRDNPKNTVYLQMNSLKPEDTAVYYCAKPRSWGYNWGQGTQVTVSS"
measured = "high polyreactivity"


###

ASSAY_TEXT: yeast display, Sf9 membrane polyspecificity reagent, FACS + sequencing; frameworks hold sequencing errors
MEASURED_PROPERTY: polyreactivity (PSR sort gate)

[[record]]
sequence_input = "QVQLVESGGGLVQAGGSLRLSCAASGIILPVYAMGWYRQAPGKERELVAAIRWSSGRTYYADSVKGRFTISRDNAKNTVYLQMNSLKPEDTAVYYCNAALYHDSEYNYWGQGTQVTVSS"
measured = "high polyreactivity"

[[record]]
sequence_input = "QVQLVESGGGLVQAGGSLRLSCAASGITFNPNAMGWYRQAPGKERELVAVITYRGGSTYYADSVMGRFTISRDNAKNTVYLQMNSLKPADTAVYYCAAQYIGWHLYWYDYWGQGTQVTVSS"
measured = "low polyreactivity"

[[record]]
sequence_input = "QVQLVESGGGLVQAGGSLRLSCAASGRTFRYYTMGWYRQAPGKEREFVAALSSTGGTYYADSVKGRFTISRDNAKNTVYLQMNSLKPEDTADYYCNVSSLNSYTSGTTYWGVDYWGQGTQVTVSS"
measured = "low polyreactivity"

[[record]]
sequence_input = "QVQLVESGGGLVQAGGSLRLSCAASGRIFGGYAMGWYRQAPGKERELVASITARGTSTYYADTVKGRFTISRDNAKNTVYLQMNRLKPEDTAVYYCNALYRIYRNQWFISNYGYYYWGQGTQVTVSS"
measured = "low polyreactivity"

[[record]]
sequence_input = "QVQLVESGGGLVQAGGSLRLSCAASGRTFSWYVMGLYRQAPGKERELVAAINSNSGSTYYADSVKGRFTISRDNAKNTVYLQMNSLKPEDTAVYYCAARAKRYNVRFDYWGQGTQVTVSS"
measured = "high polyreactivity"

[[record]]
sequence_input = "QVQLVESGGGLVQAGGSLRLSCAASGRTFILYAMGWYRQAPWKERELVAAITRRGGRTYYADSVKGRFTISRDNAKNTVYLQMNSLKREDTAVYYCAADQYYYTQPSDMDYWGQGTQVTVSS"
measured = "high polyreactivity"

[[record]]
sequence_input = "QVQLVESGGGLVQAGGSLRLSCAASGFTFRYYAMGWYRQAHGKERELVASITGGGRTYYADSVKGRFTISRDNAKNTVYLQMNSLKPEDTAVYYCATLLAYRLGSGYDSWGQGTQVTVSS"
measured = "high polyreactivity"

[[record]]
sequence_input = "QVQLVETGRGLFHAGGSLRLSCAASGGIFRVYAMGWYIPAPGKERELVAAISRSGSSTYYADSVKGRFTISRDNAKNTVYLQMNSLKPEDTAVYYCNAYSQYWLGNNYWGQGTQVTVSS"
measured = "high polyreactivity"

[[record]]
sequence_input = "QVQLVESGGGLVQAGGSLRLSCAASGFTFRYYAMGWYRQAPGKERELVAGISSRGGSTYYADSVKGRFTISRDNAKNTDYLQMNSLKTEDTAVYYCATERFLLGLGYDYWGQGTQVTVSS"
measured = "high polyreactivity"

[[record]]
sequence_input = "QVQLVESGGGLVQAGGSLRLSCAASGYSFKSYVMGWYSQAPGKERELVAAITWSGGSTYYADSVKGRFTLSRDNAKNTVFLQMHSLKPEDTAVYYCAAYPRRYRTTYDYWGQGTQVTVSS"
measured = "high polyreactivity"

[[record]]
sequence_input = "QVQLVESGGGLVQAGASLRLSCAASGSTFDYYAMGWSRQAPGKELELVDAISRGGSTNYADSVKGRFTISRDNAKNSVYLQMNILKPEDTAVYYCAAAPTYRWHDGYWGQGTQVTVSS"
measured = "low polyreactivity"


###

ASSAY_TEXT: yeast display, Sf9 membrane polyspecificity reagent, FACS + sequencing; frameworks hold sequencing errors
MEASURED_PROPERTY: polyreactivity (PSR sort gate)

[[record]]
sequence_input = "QVQLVESGGVLVQAVASLRVSCAASGRILDYNTMGWYRPAPGKERELVAAISFSGGRTYYADSVKGRFTISRDNAKNTFYLQMNSLKPEDTAVYYCAATVGAASRYYYWGQGSQVTVSS"
measured_property = "polyreactivity (PSR sort gate)"
measured = "high polyreactivity"

[[record]]
sequence_input = "QVQHVESGGGLVQAGGSLRLSCAASGRTFPINAMGWYRPAPGKERELVARISRTSGSTYYADSVKGRFTISRDNAKNTVYLQMNSLKPEDTAVYYCAAVRDKYFRASYGYWGQGTQVTVSS"
measured_property = "polyreactivity (PSR sort gate)"
measured = "high polyreactivity"

[[record]]
sequence_input = "QVQLVESGGGLVQAGGSLRLSCAASGSIFRVNDMGWYRQAPGKERELVATISRSGAITYYADSVKGRFTISRDNAKNTVNLQMNSLKPEDNAVYYCAADFLSRDWGQGTQVTLSS"
measured_property = "polyreactivity (PSR sort gate)"
measured = "low polyreactivity"

[[record]]
sequence_input = "QVQLVESGGGLVQAGGSLRLSCAASGSIFDGYAMGWYRQAPGKERELVAAISSSGVTTYYADSVKGRFTISRDNAKNTVYLQMNSLKPEDTAVYYCATYSYTWLNYYWGQGTQVTVSS"
measured_property = "polyreactivity (PSR sort gate)"
measured = "high polyreactivity"

[[record]]
sequence_input = "QVQLVESGGGLDQAGGSLRLSCAASARIFAAYAMGWYRQAPGKEREFVAAITTAGSTHYADSVKGRFTISRDNAKYTVYLQMNSLKPEDTPVYYCAADGIARAYVLFDAYDFLYDYWGQGTQVTVSS"
measured_property = "polyreactivity (PSR sort gate)"
measured = "low polyreactivity"

[[record]]
sequence_input = "QVQLVESGGGLVQAGGSLRLSCAASGFTFVHYAMGWYRQAPGKETELVAAISSGGSTYYADSVKGRFTISRDNAKNTVYLQLNSLKAEDTAVYYCAALKYSRGVRYGYWGQVTQVTVSS"
measured_property = "polyreactivity (PSR sort gate)"
measured = "high polyreactivity"

[[record]]
sequence_input = "QVQLVESGGGLVQAGGSLRLSCAASGSIFVNYAMGWYRQAPGKERELVAAISWRGGITYADSVKGRFTISRDNAKNTVYLQLNSLKPEDTAVYYCARRGYGAGPSYRLGDYWGQGTQVTVSS"
measured_property = "polyreactivity (PSR sort gate)"
measured = "low polyreactivity"

[[record]]
sequence_input = "QVQLVESGGGLVQAGGSLRLSCAASGSIFDSYAMGWYRQAPGKERELVADITSDGSTHYADSVKGRFTISRDNAKNTVYLQMNSLKAEDTAVYYCAADYFFYWLGVPVVDVYYWGQGTQVTVSS"
measured_property = "polyreactivity (PSR sort gate)"
measured = "low polyreactivity"

[[record]]
sequence_input = "QVQLVESGGGLVQAGGRLRLSCAASGIILGRYAMGWDRQAPGKERELVAAISIRGTRTYYADSVKGRFTISRDNAKNTVYLQLNSLKPEDTAVSYCAAKTVLWGQGTQVTVSS"
measured_property = "polyreactivity (PSR sort gate)"
measured = "high polyreactivity"

[[record]]
sequence_input = "QVQLVESGGGLVQAGGSLRLSCAASGFICTGYTMGWYRQAPGKERELVARISSGDSTKYADSVKGRFTISRDNAKNTVYLQMNSLKPEDTAVYYCNVRDRRSIRSRSDYWGQGTQVTVSS"
measured_property = "polyreactivity (PSR sort gate)"
measured = "high polyreactivity"

[[record]]
sequence_input = "QVQLVESGGGLVQAGGSLRLSCAASGGTFSTNTMGWYRQAPGKEMELVAAITEGTGNTYYADSVKGRFTISRDTAKNTVYLQMNSLKPEDTAVYDCATVAYSGSDFSGSAGAGDYWGQGTQVTVSS"
measured_property = "polyreactivity (PSR sort gate)"
measured = "low polyreactivity"

[[record]]
sequence_input = "QVQLVEAGRGLVHAGCSLRLSCASSGNIFANYSMGWYRQAPGKERELVAAIRWSASRTYYADSVKGRFTISRDNAMNTVYLQMNSLKPEDTAVYYCAATIDTLWDYYYDYWGQGSQVTVSS"
measured_property = "polyreactivity (PSR sort gate)"
measured = "high polyreactivity"

[[record]]
sequence_input = "QVQLVESGGGLVQAGGSLRLSCAASGRTFSVYALGWYRPAPGKERELVAGITSGGSTNYADSVKGRFTMSRDNAKNTVYLQMNILKPEDTADYSCASENVYAVFLFVSIGDYWGQGTQETVSS"
measured_property = "polyreactivity (PSR sort gate)"
measured = "low polyreactivity"

[[record]]
sequence_input = "QVQLVESGGGLVQAGGSLRLSCAASGRTFRYYAMGWYRPAPGKERELVAAITSGGTSTYYADSVKGRFTISRDNAKNTVYLQMYSLKPEDTAVYYCAAGRRSYSFHNVVRGYDYWGQGTQVTVSS"
measured_property = "polyreactivity (PSR sort gate)"
measured = "high polyreactivity"

[[record]]
sequence_input = "QVQLVESGGGLVQEGGSLRLICAASGSTFIYNAMGWYRQAPGKERELVASISTSGGSTYYADSVKGRFTISRDNAKNTVYFQMNSLIPEDTAVYYCAKRYFFKYGYWGQGTQVTVSS"
measured_property = "polyreactivity (PSR sort gate)"
measured = "high polyreactivity"

[[record]]
sequence_input = "QVQLVESGGGLVQAGGSLRLSCAASGSTFYGYGMGWYRQAPGKERELVAAITGSGDTTYYADSVKGRFTISRDNAKNTVYLQMNSLKPEDTAVYYCAADLTVRYDYWGQGTQVTVSS"
measured_property = "polyreactivity (PSR sort gate)"
measured = "low polyreactivity"

[[record]]
sequence_input = "QVQLVESGGGLVQAGGSLRLSCAASGSIFDTYAMGWYRQAPGKEREFVAAISGTDGSTYYADSVKGRFTISRDNAKNTVYLQMNSLKPEDTAVYYCNAEPPRGDTVSSGGEMDYWGQGTQVTVSS"
measured_property = "polyreactivity (PSR sort gate)"
measured = "low polyreactivity"

[[record]]
sequence_input = "QVQLVESGGGLVQAGGSLRLSCAASGFIFGDYAMGWYRQAPGKERELVAAISRSGGRTYYADSVKGRFTISRDNAKNTVYLQMNSLKPEDTAVYYCAKSSLNIYDYWGQGTQVTVSS"
measured_property = "polyreactivity (PSR sort gate)"
measured = "high polyreactivity"

[[record]]
sequence_input = "QVQLVESGGGLVQAGGSLRLSCAASGYTFYDNAMGWYRQAPGKEREFVASITWSGGSTYYADSVKGRVTISRDNAKNTVYLQMNSLKPEDTAVYYCAAESWFKYDYWGQGTQVTVSS"
measured_property = "polyreactivity (PSR sort gate)"
measured = "low polyreactivity"

[[record]]
sequence_input = "QGQLVETGGGLGQAGGSLRLSCAASGIIFYYYAMGWYRQAPGKERELVAAITGTGSRTYYADSVKGRFTISRDNAKNTVYIQMNSLKPEDTAVYYCYARSFATCSKVPARGYWGQGTQVTVSS"
measured_property = "polyreactivity (PSR sort gate)"
measured = "high polyreactivity"

[[record]]
sequence_input = "QVQLVESGGGLVQAGGSLRLSCAASGFTFYGYAMGWYRQAPGKERELVAGISKNGGSTYYADSVKGRFTISRDNAKNTVYLQMNSLKPEDTAVYYCNKRSTLNTRRDYWGQGTQVTVSS"
measured_property = "polyreactivity (PSR sort gate)"
measured = "high polyreactivity"

